target: Human Siglec-9-Fc (recombinant human Siglec-9 extracellular domain Q18-G348 fused to human IgG1 Fc) (human); assay: BLI binning, hSiglec-9-Fc on AHC sensor; competitor bound first (row): 13J19
Sequence (chain, as listed by the source limits assumed): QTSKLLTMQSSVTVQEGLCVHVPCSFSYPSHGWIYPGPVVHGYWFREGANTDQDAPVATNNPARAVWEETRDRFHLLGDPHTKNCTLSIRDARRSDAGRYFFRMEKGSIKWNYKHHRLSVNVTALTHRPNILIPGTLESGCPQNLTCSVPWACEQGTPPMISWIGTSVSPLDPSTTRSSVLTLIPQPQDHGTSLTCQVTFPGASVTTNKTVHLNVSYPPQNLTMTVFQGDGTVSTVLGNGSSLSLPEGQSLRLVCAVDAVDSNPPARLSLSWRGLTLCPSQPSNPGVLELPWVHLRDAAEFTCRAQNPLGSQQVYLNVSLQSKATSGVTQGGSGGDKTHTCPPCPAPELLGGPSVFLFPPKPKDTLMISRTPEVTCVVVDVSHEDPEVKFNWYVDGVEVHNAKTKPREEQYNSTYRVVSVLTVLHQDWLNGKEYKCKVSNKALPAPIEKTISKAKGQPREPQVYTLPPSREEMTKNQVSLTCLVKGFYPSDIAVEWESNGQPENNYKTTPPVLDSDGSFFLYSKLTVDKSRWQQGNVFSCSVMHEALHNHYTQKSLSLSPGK
Recorded maximum binding nm shift values for a group of binders are listed next.
Your answer should be a plain number; it is taken to be in nm.

Recorded maximum binding nm shift, per entry:
INSERT INTO measurements (binder, readoutname, readoutnumber) VALUES
  ('9D21 (antibody, V domains shown) VH: QVQLKESGPGLVAPSQSLSITCTVSGFSLTRYGVSWVRQPPGKGLEWLGVIWGDGSTNYHSALISRLSISKDNSKSQVFLKLNSLQTDDTATYYCARPYYGFFDYWGQGTTLTVSS VL: SIVMTQTPKFLLVSAGDRVTITCKASQSVSNAVAWYQQKPGQSPKMLIYYASNRYTGVPDRFTGSGYGTDFTFTISTVQAEDLAVYFCQQDYSSPYTFGGGTKLEIK', 'maximum binding nm shift', -0.022),
  ('9C15 (antibody, V domains shown) VH: QVQLQQPGAELVKPGASVKMSCKASGYTFTSYWITWLNQRPGQGLEWIGDIYPGSGGTNYNERFKSKATLTVDTSSSTAYMQLSSLTSEDSAVYYCARSGGWAMDYWGQGTSVTVSS VL: DIQMTQTTSSLSASLGDRVTISCRASQDISNYLNWYQQKPDGTVKLLIYYKSGLHSGVPSRFSGSGSGTDYSLTISNLEQEDIATYFCQQGNTLPFTFGGGTKLEIK', 'maximum binding nm shift', 0.282);

Read the next record carefully.
QUERY: Please look up its maximum binding nm shift: 12L19 (antibody, V domains shown) VH: QVTLKESGPGILQPSQTLSLTCSFSGFSLNTFGMAVGWIRQPSGKGLEWLAHIWWDDSYYFNPALRSRLTISKDTSKNQVFLTIANVDTADTATYYCTRIPDDYDDYAMDYWGQGTSVTVSS VL: DVVMTQTPLSLPVSLGDQASISCRSSQSLVHSNGNTYLHWYLQKPGQSPKLLVYKVSNRFSGVPDRFSGSGSGTDFTLKISRVEAEDLGVYFCSQNTHIPYTFGGGTKLEIK
RESULT: 0.175
